Exercise: for every item that follows, state its recorded protein stability index.
B1: BCL2L13 (parent)
chain: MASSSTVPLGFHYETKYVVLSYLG

# Variants of: B1
# assay-procedure: protein stability index of a GFP-peptide fusion (GPS, HEK-293T) (PSI 1-6); higher = more stable;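 also: lentivirally expressed fusions sorted by FACS into six bins by GFP to DsRed ratio, PSI derived from sequencing read proportions per bin multiplied by bin number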
# measurement-conditions: c terminus: a fixed tail appended
Give bare numbers.

Illustrative cases are given below, each with its answer.
In [3]: df
Out[3]:
   variant_key  recorded_value
0          V7P            2.14
1         V19C            2.34
2          A2S             3.1
3         F11H            1.67
4          P8G            4.24
5         V19T            3.32

For each of the variants below, state protein stability index.
1. V18H
2. S5D
3. S21G
4. F11K
5. K16C
6. G10Q
7. F11Y

[1.88, 2.72, 1.62, 2.63, 4.41, 1.69, 2.49]
